Field: Mean % WT Binding. Provide a value for each of the binders that follow.
subjectOfTest: human CD33 E63A (human, UniProt P20138 18-364)
Sequence (P20138 18-364 E63A limits assumed): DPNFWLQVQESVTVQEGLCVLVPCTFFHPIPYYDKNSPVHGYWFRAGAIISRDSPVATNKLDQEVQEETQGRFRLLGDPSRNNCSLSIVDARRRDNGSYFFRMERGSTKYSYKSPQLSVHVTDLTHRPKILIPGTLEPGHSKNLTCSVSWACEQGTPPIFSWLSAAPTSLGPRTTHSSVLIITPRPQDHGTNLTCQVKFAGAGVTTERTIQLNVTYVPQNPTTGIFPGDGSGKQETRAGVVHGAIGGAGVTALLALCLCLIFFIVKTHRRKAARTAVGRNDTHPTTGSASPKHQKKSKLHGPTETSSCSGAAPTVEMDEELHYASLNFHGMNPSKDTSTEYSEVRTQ
protocolDescription: alanine scan, flow cytometry;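 note: HEK293-T cells transiently expressing single-residue alanine mutants of CD33 (alanine swapped to serine), antibody binding read by fluorescence in duplicate, background-subtracted, expressed relative to wild-type CD33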
// note: answer is a bare numeric in % WT

Form field Mean % WT Binding, entry Refmab #4 (antibody, V domains shown, Full-length format is human IgG1 Fc silent (PG-LALA); The alanine scan used IgG or Fab) VH: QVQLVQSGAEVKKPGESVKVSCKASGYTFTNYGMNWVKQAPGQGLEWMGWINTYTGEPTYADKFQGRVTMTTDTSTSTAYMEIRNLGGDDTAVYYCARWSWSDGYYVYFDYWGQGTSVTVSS VL: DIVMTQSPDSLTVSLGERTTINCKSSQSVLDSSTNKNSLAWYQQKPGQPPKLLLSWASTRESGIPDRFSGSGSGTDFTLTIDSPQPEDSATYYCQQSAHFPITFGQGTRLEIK : 84.1

Form field Mean % WT Binding, entry Refmab #1 (antibody, V domains shown, Full-length format is human IgG1 (Absolute Antibody Ab00283-10.0); The alanine scan used IgG or Fab; also called hP67.6) VH: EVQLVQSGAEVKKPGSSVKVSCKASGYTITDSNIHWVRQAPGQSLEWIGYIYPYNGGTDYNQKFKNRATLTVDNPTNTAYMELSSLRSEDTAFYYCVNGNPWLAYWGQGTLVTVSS VL: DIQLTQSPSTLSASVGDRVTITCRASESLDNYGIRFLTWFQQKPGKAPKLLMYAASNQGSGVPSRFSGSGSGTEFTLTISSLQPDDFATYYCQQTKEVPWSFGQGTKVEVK : 107

Form field Mean % WT Binding, entry Refmab #2 (antibody, V domains shown, Full-length format is human IgG1 Fc silent (PG-LALA); The alanine scan used IgG or Fab) VH: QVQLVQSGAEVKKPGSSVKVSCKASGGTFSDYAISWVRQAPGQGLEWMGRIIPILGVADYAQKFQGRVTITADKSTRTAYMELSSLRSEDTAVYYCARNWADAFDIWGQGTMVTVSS VL: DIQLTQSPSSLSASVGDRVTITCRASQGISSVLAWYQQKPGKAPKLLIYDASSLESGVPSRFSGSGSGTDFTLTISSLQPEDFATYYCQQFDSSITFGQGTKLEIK : 107

Form field Mean % WT Binding, entry Refmab #3 (antibody, V domains shown, Full-length format is human IgG1 Fc silent (PG-LALA); The alanine scan used IgG or Fab) VH: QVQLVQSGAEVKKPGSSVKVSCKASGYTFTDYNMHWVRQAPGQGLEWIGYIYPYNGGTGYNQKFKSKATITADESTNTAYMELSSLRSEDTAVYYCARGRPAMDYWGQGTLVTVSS VL: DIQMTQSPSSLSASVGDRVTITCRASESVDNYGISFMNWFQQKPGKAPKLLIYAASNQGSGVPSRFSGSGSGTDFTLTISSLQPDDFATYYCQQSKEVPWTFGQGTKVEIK : 124
